# targetOrSystem: Aβ42 (Homo sapiens)
# procedureText: Th-T (thioflavin-T) assay of Aβ42 aggregation
# Assay type: biochemical
# studyConditions: column suffix _50; reading M98
metricName: Fig. 7a Th-T reading, mean of three wells

[
  {
    "compound": "C=C1CCC2C(C)(CCC=C(C)C)C(O)CCC2(C)C1Cc1c(OC)oc(C)c(C(=O)OC)c1=O (centres unmarked) [Compound 14]",
    "recordedResult": 1.5408
  },
  {
    "compound": "C=C1CCC2C(C)(CCC=C(C)C)C(O)CCC2(C)C1Cc1c(OC)oc(CO)c(C(=O)OC)c1=O (centres unmarked) [Compound 13]",
    "recordedResult": 0.4718
  },
  {
    "compound": "C=C1CCC2C(C)(CCC=C(C)C)C(O)CCC2(C)C1Cc1c(OC)oc(CO)c(C)c1=O (centres unmarked) [Compound 12]",
    "recordedResult": 1.397
  },
  {
    "compound": "C=C1CC[C@@H]2[C@](C)(CC[C@H]3O[C@H](C=C(C)C)C[C@@]23C)[C@@H]1Cc1c(OC)oc(CO)c(C)c1=O [Compound 20]",
    "recordedResult": 2.09
  },
  {
    "compound": "C=C1CC[C@@H]2[C@](C)(CC[C@H]3O[C@H](C=C(C)C)C[C@@]23C)[C@@H]1Cc1c(OC)oc(CO)c(C(=O)OC)c1=O [Compound 21]",
    "recordedResult": 0.4638
  }
]

* * *

# targetOrSystem: Aβ42 (Homo sapiens)
# procedureText: Th-T (thioflavin-T) assay of Aβ42 aggregation
# Assay type: biochemical
# studyConditions: concentration 50, unit not given; time-course reading M134
The label fulfilled is reserved for Th-T fluorescence of Aβ42 with compound, mean of three wells (Fig. 7a source data) strictly under 0.8; not fulfilled covers values equal to or above it.

[
  {
    "compound": "C=C1CC[C@@H]2[C@](C)(CC[C@H]3O[C@H](C=C(C)C)C[C@@]23C)[C@@H]1Cc1c(OC)oc(CO)c(C(=O)OC)c1=O",
    "targetOrSystem": "Aβ42 (Homo sapiens)",
    "assignedCategory": "fulfilled"
  },
  {
    "compound": "C=C1CCC2C(C)(CCC=C(C)C)C(O)CCC2(C)C1Cc1c(OC)oc(C)c(C(=O)OC)c1=O (centres unmarked)",
    "targetOrSystem": "Aβ42 (Homo sapiens)",
    "assignedCategory": "not fulfilled"
  },
  {
    "compound": "C=C1CCC2C(C)(CCC=C(C)C)C(O)CCC2(C)C1Cc1c(OC)oc(CO)c(C(=O)OC)c1=O (centres unmarked)",
    "targetOrSystem": "Aβ42 (Homo sapiens)",
    "assignedCategory": "fulfilled"
  },
  {
    "compound": "C=C1CCC2C(C)(CCC=C(C)C)C(O)CCC2(C)C1Cc1c(OC)oc(CO)c(C)c1=O (centres unmarked)",
    "targetOrSystem": "Aβ42 (Homo sapiens)",
    "assignedCategory": "not fulfilled"
  },
  {
    "compound": "C=C1CC[C@@H]2[C@](C)(CC[C@H]3O[C@H](C=C(C)C)C[C@@]23C)[C@@H]1Cc1c(OC)oc(CO)c(C)c1=O",
    "targetOrSystem": "Aβ42 (Homo sapiens)",
    "assignedCategory": "not fulfilled"
  }
]

* * *

# targetOrSystem: Aβ42 (Homo sapiens, UniProt P05067)
# Sequence (P05067 672-713): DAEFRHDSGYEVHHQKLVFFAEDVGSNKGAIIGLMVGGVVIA
# procedureText: Th-T (thioflavin-T) assay of Aβ42 aggregation
# Format: biochemical
# studyConditions: measurement M13; source data, Ab alone and No Ab as controls
metricName: Th-T assay plate reading, mean of three wells (Supplementary Fig. 47)

[
  {
    "compound": "C=C1CCC2C3(C)CC(C=C(C)C)OC3CCC2(C)C1Cc1c(OC)oc(C)c(C)c1=O (centres unmarked) [Compound 23]",
    "recordedResult": 2.41
  },
  {
    "compound": "C=C1CCC2C(C)(CCC=C(C)C)C(=O)CCC2(C)C1Cc1c(O)c(C)c(C)oc1=O (centres unmarked) [Compound 8]",
    "recordedResult": 0.553
  },
  {
    "compound": "C=C1CCC2C(C)(CC(=O)C=C(C)C)C(O)CCC2(C)C1Cc1c(O)c(C)c(C)oc1=O (centres unmarked) [Compound 7]",
    "recordedResult": 0.7892
  },
  {
    "compound": "C=C1CCC2C(C)(CCC=C(C)C)C(O)CCC2(C)C1Cc1c(OC)oc(C)c(C)c1=O (centres unmarked) [Compound 11]",
    "recordedResult": 1.388
  },
  {
    "compound": "C=C1CCC2C(C)(CCC=C(C)C)C(O)CCC2(C)C1Cc1c(O)c(C)c(C)oc1=O (centres unmarked) [Compound 9, higginsianin B]",
    "recordedResult": 0.6443
  },
  {
    "compound": "C=C1CCC2C(C)(CCC=C(C)C)C(O)CCC2(C)C1Cc1c(OC)oc(CO)c(C(=O)OC)c1=O (centres unmarked) [Compound 13]",
    "recordedResult": 0.1699
  },
  {
    "compound": "C=C1CCC2C(C)(CCC=C(C)C)C(O)CCC2(C)C1Cc1c(OC)oc(C)c(C(=O)OC)c1=O (centres unmarked) [Compound 14]",
    "recordedResult": 0.5559
  },
  {
    "compound": "CC(C)=CCC/C(C)=C/CC/C(C)=C/CC/C(C)=C/Cc1c(O)c(C)c(C)oc1=O [Compound 2]",
    "recordedResult": 2.113
  },
  {
    "compound": "C=C1CCC2C(C)(CCC=C(C)C)C(O)CCC2(C)C1Cc1c(OC)oc(C)c(C)c1=O (centres unmarked) [Compound 15, viridoxin A hydrolysate]",
    "recordedResult": 1.906
  },
  {
    "compound": "C=C1CC[C@H]2[C@]3(C)C[C@@H](C=C(C)C)O[C@H]3CC[C@]2(C)[C@@H]1Cc1c(O)c(C)c(C)oc1=O [Compound 5, subglutinol A]",
    "recordedResult": 0.9138
  },
  {
    "compound": "C=C1CC[C@@H]2[C@](C)(CC[C@H]3O[C@H](C=C(C)C)C[C@@]23C)[C@@H]1Cc1c(OC)oc(CO)c(C(=O)OC)c1=O [Compound 21]",
    "recordedResult": 0.1929
  }
]

* * *

Below: a set of entries, each annotated with reported Th-T fluorescence, mean of three wells.
# targetOrSystem: Aβ42 (Homo sapiens, UniProt P05067)
# procedureText: Th-T (thioflavin-T) assay of Aβ42 aggregation
# Assay type: biochemical
# studyConditions: compound at 10; reading M54 of time course
metricName: Th-T fluorescence, mean of three wells

[
  {
    "molecule": "C=C1CC[C@@H]2[C@](C)(CC[C@H]3O[C@H](C=C(C)C)C[C@@]23C)[C@@H]1Cc1c(OC)oc(CO)c(C)c1=O",
    "recordedResult": 3.468
  },
  {
    "molecule": "C=C1CCC2C(C)(CCC=C(C)C)C(O)CCC2(C)C1Cc1c(OC)oc(C)c(C(=O)OC)c1=O (centres unmarked)",
    "recordedResult": 2.546
  },
  {
    "molecule": "C=C1CCC2C(C)(CCC=C(C)C)C(O)CCC2(C)C1Cc1c(OC)oc(CO)c(C)c1=O (centres unmarked)",
    "recordedResult": 3.443
  },
  {
    "molecule": "C=C1CCC2C(C)(CCC=C(C)C)C(O)CCC2(C)C1Cc1c(OC)oc(CO)c(C(=O)OC)c1=O (centres unmarked)",
    "recordedResult": 1.542
  },
  {
    "molecule": "C=C1CC[C@@H]2[C@](C)(CC[C@H]3O[C@H](C=C(C)C)C[C@@]23C)[C@@H]1Cc1c(OC)oc(CO)c(C(=O)OC)c1=O",
    "recordedResult": 0.2883
  }
]

* * *

This section presents compounds with their documented Th-T fluorescence of Aβ42 with compound, mean of three wells (Fig. 7a source data) values.
# targetOrSystem: Aβ42 (Homo sapiens)
# procedureText: Th-T (thioflavin-T) assay of Aβ42 aggregation
# Format: biochemical
# studyConditions: concentration 50, unit not given; time-course reading M142
metricName: Th-T fluorescence of Aβ42 with compound, mean of three wells (Fig. 7a source data)

[
  {
    "compound": "C=C1CCC2C(C)(CCC=C(C)C)C(O)CCC2(C)C1Cc1c(OC)oc(CO)c(C)c1=O (centres unmarked) [Compound 12]",
    "recordedResult": 1.661
  },
  {
    "compound": "C=C1CCC2C(C)(CCC=C(C)C)C(O)CCC2(C)C1Cc1c(OC)oc(CO)c(C(=O)OC)c1=O (centres unmarked) [Compound 13]",
    "recordedResult": 0.4776
  },
  {
    "compound": "C=C1CC[C@@H]2[C@](C)(CC[C@H]3O[C@H](C=C(C)C)C[C@@]23C)[C@@H]1Cc1c(OC)oc(CO)c(C(=O)OC)c1=O [Compound 21]",
    "recordedResult": 0.5037
  },
  {
    "compound": "C=C1CC[C@@H]2[C@](C)(CC[C@H]3O[C@H](C=C(C)C)C[C@@]23C)[C@@H]1Cc1c(OC)oc(CO)c(C)c1=O [Compound 20]",
    "recordedResult": 2.118
  },
  {
    "compound": "C=C1CCC2C(C)(CCC=C(C)C)C(O)CCC2(C)C1Cc1c(OC)oc(C)c(C(=O)OC)c1=O (centres unmarked) [Compound 14]",
    "recordedResult": 0.7418
  }
]
